Recorded values, source PubChem BioAssay AID1159580.

assay: chemical genetic growth profiling, strain panel (AID 1159580);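 note: tested at 20 µM; growth read once vehicle control cultures reached saturation at 30 °C; 1 = growth at the plate median or of vehicle wells; lower values mean less growth of the strain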; settings: S. cerevisiae deletion strains, growth OD, locus YPR106W, strain ISR1, hits give low values
Screen size: about 5,500 compounds; about 2,000 (36%) were called active. Not shown: some 18% with an inconclusive outcome. This is one part of the list.
Listed below: normalized growth values for each entry.

{"columns": ["Compound", "normalized growth"],
 "data": [
  ["O=[N+]([O-])c1ccc(Sc2ccccc2)c([N+](=O)[O-])c1", 0.849],
  ["CC1SC(c2cccnc2)N(c2ccc(F)cc2F)C1=O (centres undefined)", 1],
  ["CCOC(=O)c1cnc(-c2ccccn2)[nH]c1=O", 0.944],
  ["CCOC(=O)C(NC(=O)c1cccc(Cl)c1)(Nc1nc2ccccc2s1)C(F)(F)F (centres undefined)", 0.962],
  ["CC(=O)c1ccc(Sc2ccccc2)c([N+](=O)[O-])c1", 0.866],
  ["Cc1cc2nc3c(Cl)c(O)c4ccccc4c3nc2cc1C", 1.01],
  ["O=[N+]([O-])c1ccc(Sc2ccccc2)cc1O", 0.875],
  ["N/C(=N/OCc1c(F)cccc1Cl)c1ccc(Cl)cc1", 0.915],
  ["O=S(=O)(Nc1c(F)cccc1F)c1ccc(Cl)c(Cl)c1", 0.957]
]}
